# tested target: GPR40 (Homo sapiens, UniProt O14842)
# Construct: expressed in transfected cells; host or cells: HEK293 cells stably expressing GPR40 (Hygromycin selection)
# Sequence (O14842 whole entry): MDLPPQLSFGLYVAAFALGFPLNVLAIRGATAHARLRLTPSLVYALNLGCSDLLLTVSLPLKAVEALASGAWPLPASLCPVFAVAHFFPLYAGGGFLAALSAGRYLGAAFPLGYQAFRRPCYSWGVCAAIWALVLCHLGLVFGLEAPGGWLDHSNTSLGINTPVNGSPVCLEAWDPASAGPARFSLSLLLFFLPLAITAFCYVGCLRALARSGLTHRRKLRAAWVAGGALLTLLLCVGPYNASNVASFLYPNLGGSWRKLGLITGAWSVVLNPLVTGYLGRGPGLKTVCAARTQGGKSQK
# measurement description: IP1 accumulation assay in HEK293 cells stably expressing GPR40
# Format: cell-based
# experimental conditions: IP1 accumulation, HEK293 cells stably expressing GPR40, 2 hours at 37° C., % effect relative to AMG-1638; table of Biological Example 1
# Experimental: IP1 accumulation assay was used to evaluate the potency of compounds. […] Assay plate was incubated at room temperature for 60 min and then read at 665 nm/615 nm on an Envision plate reader (PerkinElmer). […] Dose curve was fitted and EC50 of each compound was calculated by using XLFit.
Below, each of the compounds is paired with its reported log10 of EC50 value.
recorded endpoint: log10 of EC50 (log10 of the value in nM)

{"columns": ["query smiles", "tested target", "log10 of EC50"],
 "data": [
  ["COc1ccc(C(=O)N(CC(C)(C)CCCCCCn2cc(CCCCCCCCC(=O)NCCCN(CC(=O)O)CC(=O)O)nn2)c2cccc(C)n2)c(N2CCC(COc3cc([C@@H](CC(=O)O)C4CC4)ccn3)CC2)c1", "GPR40 (Homo sapiens, UniProt O14842)", 1.08],
  ["COc1ccc(F)c(-c2ccc(COc3cccc([C@@H](CC(=O)O)C4CC4)c3)cc2CC(C)(C)Cn2cc(CCCCCCCCCCCCCCC(=O)NCCN(CCC(=O)NCCN)CCC(=O)NCCN)nn2)c1", "GPR40 (Homo sapiens, UniProt O14842)", 1.30],
  ["COc1ccc(F)c(-c2ccc(COc3cccc([C@@H](CC(=O)O)C4CC4)c3)cc2CC(C)(C)Cn2cc(COCCOCCOCCOCCOCC(=O)NCC[N+](C)(CCC(=O)NCCN)CCC(=O)NCCN)nn2)c1", "GPR40 (Homo sapiens, UniProt O14842)", 2.30],
  ["COc1ccc(C(=O)N(CC(C)(C)CCCCCCn2cc(CCCCCCCCCCCCCC(=O)NCCN(CCC(=O)NCCN)CCC(=O)NCCN)nn2)c2cccc(C)n2)c(N2CCC(COc3cc([C@@H](CC(=O)O)C4CC4)ccn3)CC2)c1", "GPR40 (Homo sapiens, UniProt O14842)", -1.30],
  ["C[C@H](C(=O)O)[C@H](c1ccc2c(c1)O[C@@H](C1CCN(Cc3cc(-n4cc(CCCCCCCCCCCCCCCCCC(=O)NCCN(CCC(=O)NCCN)CCC(=O)NCCN)nn4)ccc3OC(F)(F)F)CC1)CC2)C1CC1", "GPR40 (Homo sapiens, UniProt O14842)", 0.04],
  ["COc1ccc(C(=O)N(CC(C)(C)CCCCCCn2cc(CCCCCCCCCC(=O)NCCCN(CC(=O)O)CC(=O)O)nn2)c2cccc(C)n2)c(N2CCC(COc3cc([C@@H](CC(=O)O)C4CC4)ccn3)CC2)c1", "GPR40 (Homo sapiens, UniProt O14842)", 0.85],
  ["COc1ccc(F)c(-c2ccc(COc3cccc([C@@H](CC(=O)O)C4CC4)c3)cc2CC(C)(C)Cn2cc(CCCCCCCCCCCCCCCC(=O)NCCN(CCC(=O)NCCN)CCC(=O)NCCN)nn2)c1", "GPR40 (Homo sapiens, UniProt O14842)", 0.13],
  ["COc1ccc(F)c(-c2ccc(COc3cccc([C@@H](CC(=O)O)C4CC4)c3)cc2CC(C)(C)Cn2cc(CCCCCCCCCCCCCCCC(=O)NCCC[N+](C)(CC(=O)NCCN)CC(=O)NCCN)nn2)c1", "GPR40 (Homo sapiens, UniProt O14842)", 0.40],
  ["COc1ccc(F)c(-c2ccc(COc3cccc([C@@H](CC(=O)O)C4CC4)c3)cc2CC(C)(C)Cn2cc(CCCCCCCCCCC(=O)NCC[N+](C)(CCC(=O)NCCN)CCC(=O)NCCN)nn2)c1", "GPR40 (Homo sapiens, UniProt O14842)", 3.10],
  ["COc1ccc(F)c(-c2ccc(COc3cccc([C@@H](CC(=O)O)C4CC4)c3)cc2CC(C)(C)Cc2cn(CCCCCCCCCCCCCCC(=O)NCCN(CCC(=O)NCCN)CCC(=O)NCCN)nn2)c1", "GPR40 (Homo sapiens, UniProt O14842)", 1.41],
  ["COc1ccc(C(=O)N(CC(C)(C)CCn2cc(CCCCCCCCCCCCCCC(=O)NCC[N+](C)(CCC(=O)NCCN)CCC(=O)NCCN)nn2)c2cccc(C)n2)c(N2CCC(c3cc4ccc([C@@H](CC(=O)O)C5CC5)cc4o3)CC2)c1", "GPR40 (Homo sapiens, UniProt O14842)", -1.10],
  ["COc1ccc(F)c(-c2ccc(COc3cccc([C@@H](CC(=O)O)C4CC4)c3)cc2CC(C)(C)Cn2cc(CCCCCCCCCCCCCCCCCC(=O)NCCC[N+](C)(C)CC(=O)NCCN)nn2)c1", "GPR40 (Homo sapiens, UniProt O14842)", -0.37],
  ["COc1ccc(F)c(-c2ccc(COc3cccc([C@@H](CC(=O)O)C4CC4)c3)cc2CC(C)(C)Cn2cc(CCCCCCCCCCC(=O)NCCN(CCC(=O)NCCN)CCC(=O)NCCN)nn2)c1", "GPR40 (Homo sapiens, UniProt O14842)", 3.25]
]}
